Assay Target: UniProtKB Q6RI86
Sequence (Q6RI86 whole entry): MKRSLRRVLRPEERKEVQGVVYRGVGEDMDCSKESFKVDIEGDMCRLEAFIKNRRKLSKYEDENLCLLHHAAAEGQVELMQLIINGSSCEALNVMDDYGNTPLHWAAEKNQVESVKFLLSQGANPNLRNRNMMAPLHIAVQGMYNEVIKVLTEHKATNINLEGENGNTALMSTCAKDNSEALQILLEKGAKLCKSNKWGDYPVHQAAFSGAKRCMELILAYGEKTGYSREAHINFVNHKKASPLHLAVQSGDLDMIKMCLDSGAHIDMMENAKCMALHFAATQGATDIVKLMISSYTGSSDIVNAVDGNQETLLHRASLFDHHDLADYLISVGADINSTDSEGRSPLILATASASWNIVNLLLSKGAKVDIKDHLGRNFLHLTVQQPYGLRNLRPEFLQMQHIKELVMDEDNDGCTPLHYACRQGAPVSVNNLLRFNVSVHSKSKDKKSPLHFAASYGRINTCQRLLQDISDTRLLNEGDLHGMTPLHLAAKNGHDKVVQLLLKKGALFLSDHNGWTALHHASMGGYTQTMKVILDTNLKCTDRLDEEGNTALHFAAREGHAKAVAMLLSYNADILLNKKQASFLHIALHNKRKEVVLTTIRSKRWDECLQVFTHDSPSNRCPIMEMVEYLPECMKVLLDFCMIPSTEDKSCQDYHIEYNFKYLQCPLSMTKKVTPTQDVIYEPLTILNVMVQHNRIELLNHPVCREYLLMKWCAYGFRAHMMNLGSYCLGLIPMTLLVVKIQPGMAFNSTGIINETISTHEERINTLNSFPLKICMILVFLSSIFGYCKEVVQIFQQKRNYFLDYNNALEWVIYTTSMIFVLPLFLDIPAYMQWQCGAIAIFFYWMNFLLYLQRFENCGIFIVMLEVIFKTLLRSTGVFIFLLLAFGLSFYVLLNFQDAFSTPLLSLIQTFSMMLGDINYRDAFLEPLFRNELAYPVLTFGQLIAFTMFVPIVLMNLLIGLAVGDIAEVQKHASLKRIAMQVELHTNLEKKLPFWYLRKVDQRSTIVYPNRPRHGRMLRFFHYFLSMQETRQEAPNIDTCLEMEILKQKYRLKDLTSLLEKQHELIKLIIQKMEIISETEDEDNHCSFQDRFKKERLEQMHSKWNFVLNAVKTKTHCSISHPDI
Test Protocol: Antagonist/desensitizing assay: inhibition of AITC (100 μM)-induced [Ca2+]i elevation in rTRPA1-HEK293 cells
Condition: compound added 5 min before stimulation with AITC 100 μM; HEK293 cells transfected with rTRPA1; read-out: IC50 inh TRPA1 (AITC 100 μM)
Give measured pIC50 for each item. Keep answers brief.
Remember, pIC50 is on a log scale: it is -log10 of the molar concentration.

Reported pIC50 for C/C=C\C#CC#CCCc1cccc(=O)o1 : what is it?
4.43

What about this compound? CCCC#CC#CCCc1cccc(=O)o1
4.34

What about this compound? CC#CC#CC#CCCc1cccc(=O)o1
4.06

Values were extracted from paper PMC6099690.
